src = the supplement of paper PMC8371130

system: HL-1; assay: relative cell viability (CellTiter-Glo) vs DMSO control (% of DMSO control); higher = more viable cells; details: oxygen condition: hypoxia 48 h (1% O2) + reoxygenation 24 h; 40 nM
relative cell viability overview
property.measured: relative cell viability

INSERT INTO assay_data (compound, property_measured, reported_measurement) VALUES
  ('OCCOCCN1CCN(C(c2ccccc2)c2ccc(Cl)cc2)CC1 (stereo not drawn) [Hydroxyzine 2HCl]', 'relative cell viability', 104),
  ('NCCc1c[nH]cn1 [Histamine Phosphate]', 'relative cell viability', 99.7),
  ('COC(=O)[C@H]1[C@H]2C[C@@H]3c4[nH]c5cc(OC)ccc5c4CCN3C[C@H]2C[C@@H](OC(=O)c2cc(OC)c(OC)c(OC)c2)[C@@H]1OC', 'relative cell viability', 112);

---

tested on: HL-1; test: relative cell viability (CellTiter-Glo) vs DMSO control (% of DMSO control); higher = more viable cells; conditions: oxygen condition: hypoxia 48 h (1% O2) + reoxygenation 24 h; 200 nM
Where a name gives a salt, the structure may show the parent alone.
property.measured: relative cell viability

INSERT INTO measurements (compound, target_entity, property_measured, reported_measurement) VALUES
  ('CC1(C)S[C@@H]2[C@H](NC(=O)[C@H](N)c3ccc(O)cc3)C(=O)N2[C@H]1C(=O)O', 'HL-1', 'relative cell viability', 103),
  ('Nc1nc(F)nc2c1ncn2[C@@H]1O[C@H](COP(=O)(O)O)[C@@H](O)[C@@H]1O [Fludarabine Phosphate]', 'HL-1', 'relative cell viability', 108),
  ('O=P(O)(O)C(Cl)(Cl)P(=O)(O)O [Clodronate Disodium]', 'HL-1', 'relative cell viability', 114),
  ('CCCCC(=O)O[C@H]1CC[C@H]2[C@@H]3CCc4cc(O)ccc4[C@H]3CC[C@]12C [Estradiol valerate]', 'HL-1', 'relative cell viability', 103),
  ('COC(=O)C1=C(C)NC(C)=C(C(=O)OCCN(C)Cc2ccccc2)C1c1cccc([N+](=O)[O-])c1 (stereo not drawn) [Nicardipine HCl]', 'HL-1', 'relative cell viability', 111),
  ('C[N+](C)(C)CC(O)CC(=O)[O-] (racemic) [DL-Carnitine hydrochloride]', 'HL-1', 'relative cell viability', 95.2),
  ('C[C@H]1c2cccc(O)c2C(=O)C2=C(O)[C@]3(O)C(=O)C(C(N)=O)=C(O)[C@@H](N(C)C)[C@@H]3[C@@H](O)[C@@H]21 [Doxycycline HCl]', 'HL-1', 'relative cell viability', 104),
  ('CN(C)CCc1c[nH]c2ccc(C[C@H]3COC(=O)N3)cc12', 'HL-1', 'relative cell viability', 104),
  ('CC(=O)Oc1ccc(C(c2ccc(OC(C)=O)cc2)c2ccccn2)cc1', 'HL-1', 'relative cell viability', 100),
  ('COC(=O)C1=C(C)NC(C)=C(C(=O)OC)C1c1ccccc1[N+](=O)[O-]', 'HL-1', 'relative cell viability', 77.6),
  ('COc1cccc2c1C(=O)c1c(O)c3c(c(O)c1C2=O)C[C@@](O)(C(=O)CO)C[C@@H]3O[C@H]1C[C@H](N)[C@@H](O)[C@H](C)O1 [Epirubicin Hydrochloride]', 'HL-1', 'relative cell viability', 102),
  ('CN(C(=O)CN(CCO)CC(=O)N(C)C(C)(C)Cc1ccccc1)C(C)(C)Cc1ccccc1', 'HL-1', 'relative cell viability', 103),
  ('OC[C@@H](O)[C@@H](O)[C@H](O)[C@@H](O)CO', 'HL-1', 'relative cell viability', 101),
  ('CC(C)NCC(O)c1ccc(NS(C)(=O)=O)cc1 (stereo not drawn)', 'HL-1', 'relative cell viability', 98.9),
  ('O=C1O[C@H]([C@@H](O)CO)C([O-])=C1O.[Na+] [Sodium ascorbate]', 'HL-1', 'relative cell viability', 101),
  ('C[C@@](Cc1ccc(O)c(O)c1)(NN)C(=O)O', 'HL-1', 'relative cell viability', 100),
  ('O=C(Nc1ccccc1)OCC(CN1CCCCC1)OC(=O)Nc1ccccc1 (stereo not drawn) [Diperodon HCl]', 'HL-1', 'relative cell viability', 101),
  ('C[C@]12CCC3=C4CCC(=O)C=C4CC[C@H]3[C@@H]1CC[C@@]2(O)CC#N', 'HL-1', 'relative cell viability', 104),
  ('CC(C)(OCc1nn(Cc2ccccc2)c2ccccc12)C(=O)O', 'HL-1', 'relative cell viability', 99.8),
  ('CC1Cc2ccccc2N1NC(=O)c1ccc(Cl)c(S(N)(=O)=O)c1 (stereo not drawn) [Indapamide]', 'HL-1', 'relative cell viability', 104),
  ('C=CC(=O)N1CCC[C@@H](n2nc(-c3ccc(Oc4ccccc4)cc3)c3c(N)ncnc32)C1', 'HL-1', 'relative cell viability', 96.6),
  ('Cn1c(CNc2ccc(C(=N)N)cc2)nc2cc(C(=O)N(CCC(=O)O)c3ccccn3)ccc21', 'HL-1', 'relative cell viability', 96),
  ('N=C(N)NC(=O)c1nc(Cl)c(N)nc1N [Amiloride hydrochloride]', 'HL-1', 'relative cell viability', 105);
